This collection of values is drawn from BigSolDB 2.1.

test parameters: in acetonitrile, 298.15 K
measurement name: solubility (mole fraction)
# output: bare number, no unit

Fill blank: measured solubility (mole fraction) of the compound `CCOC(=O)c1ccc(O)cc1` is ____.
0.148

---

test parameters: in water, 298.15 K
measurement name: solubility (mole fraction)
A bare number is all that is needed in reply.

Name the recorded solubility (mole fraction) for `CCOC(=O)c1ccc(O)cc1` .
9.7e-05

---

test parameters: in water, 293.15 K
measurement name: solubility (mole fraction)

So what's the measured solubility (mole fraction) for this one? `CCOC(=O)c1ccc(O)cc1`
7.52e-05

---

test parameters: in water, 303.15 K
measurement name: solubility (mole fraction)
Lab note: write the figure by itself, no unit.

Data request, read-out solubility (mole fraction), for `CCOC(=O)c1ccc(O)cc1`
0.000119
